Would you mind telling me the reported normalized growth of each entry?
Assay: chemical genetic growth profiling, strain panel (AID 1159580);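 note: tested at 20 µM; growth read once vehicle control cultures reached saturation at 30 °C; 1 = growth at the plate median or of vehicle wells; lower values mean less growth of the strain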
Settings: S. cerevisiae deletion strains, growth OD, locus YHR142W, strain chs7, active compounds read low
The whole screen tested about 5,500 compounds, of which about 2,000 (36%) were called active. About 18% were inconclusive and are not listed. The list shows a part of the results.
Give bare numbers.

Batch request: normalized growth for each of the following molecules.
1. CC(C)=CCC/C(C)=C/CC/C(C)=C/CC/C(C)=C/CC/C(C)=C/CC/C(C)=C/CC/C(C)=C/CC/C(C)=C/CC/C(C)=C/CO
2. C1CNCCN1

[0.983, 1.02]

Batch request: normalized growth for each of the following molecules.
1. COc1cc(OC)c2c(=O)c(-c3ccccc3)c(C)oc2c1OC
2. CNC[C@@H](O)c1ccc(O)c(O)c1
3. COc1c2c(cc3c1OCO3)CCN(C)C2
4. O=C(NC(=O)c1c(F)cccc1F)Nc1ccc(Cl)cc1

1.01
1.02
0.991
1.01

Batch request: normalized growth for each of the following molecules.
1. CC(=O)O[C@@H]1CC2C(C)(C)C=CC(=O)[C@]2(C)C2CC[C@@]3(C)[C@H](c4ccoc4)OC(=O)C4OC43[C@@]21C (stereo partly drawn)
2. Nc1ccc(C(=O)NCC(=O)O)cc1
3. NC[C@H](O)c1ccc(O)c(O)c1
4. O=C(O)CCCCC1CCSS1 (stereo not drawn)
5. Cc1ccsc1/C=C/C1=NCCCN1C
6. OC[C@@H](O)[C@@H](O[C@@H]1O[C@H](CO)[C@@H](O)[C@H](O)[C@H]1O)[C@H](O)[C@@H](O)CO

0.987
1.02
0.978
1.02
0.997
0.998
